For each entry below, report its log10 of ID50 value.
- target_desc: Platelet-activating factor receptor (Rattus norvegicus) (UniProt P46002)
- Sequence (P46002 whole entry): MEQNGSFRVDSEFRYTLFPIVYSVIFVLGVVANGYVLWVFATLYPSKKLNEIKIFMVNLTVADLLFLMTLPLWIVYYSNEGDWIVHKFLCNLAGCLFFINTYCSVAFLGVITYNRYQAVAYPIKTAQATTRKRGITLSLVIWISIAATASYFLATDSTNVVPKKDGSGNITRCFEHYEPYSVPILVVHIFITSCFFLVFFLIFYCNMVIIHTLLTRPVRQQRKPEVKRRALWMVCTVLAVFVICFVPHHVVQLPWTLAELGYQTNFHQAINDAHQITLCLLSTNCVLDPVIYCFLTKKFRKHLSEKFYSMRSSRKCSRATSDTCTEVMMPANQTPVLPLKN
- protocol_details: Activity expressed as the dose required to reduce the lowering of the arterial blood pressure caused by PAF by 50%
- Format: functional
- protocol_conditions: Artery
Please keep in mind that the values are log10 of ID50 expressed in mg/kg.

Measured on Platelet-activating factor receptor (Rattus norvegicus) (UniProt P46002), CCCCCCCCCCCCCCCCOCC1COC(COC(=O)N(Cc2cccc[n+]2CC)C(=O)OCC)C1 (stereo not drawn) has a documented log10 of ID50 of -1.46

Platelet-activating factor receptor (Rattus norvegicus) (UniProt P46002) assay, compound CCCCCCCCCCCCCCOCC1COC(COCCCCCCC[n+]2ccsc2)C1 (stereo not drawn) , recorded log10 of ID50 = 0.15

# value of log10 of ID50, Platelet-activating factor receptor (Rattus norvegicus) (UniProt P46002), item CCCCCCCCCCCCCCCCOCC1COC(COC(=O)N(C(C)=O)c2ccc[n+](CC)c2)C1 (stereo not drawn) = -0.89

Form field log10 of ID50 for item CCCCCCCCCCCCCCC1COC(COCCCCCC[n+]2cccc3ccccc32)C1 (stereo not drawn) on Platelet-activating factor receptor (Rattus norvegicus) (UniProt P46002): 0.48

Record for CCCCCCCCCCCCCCC1COC(COCCCCCC[n+]2ccsc2)C1 (stereo in doubt; form 2) under target or system Platelet-activating factor receptor (Rattus norvegicus) (UniProt P46002): log10 of ID50 reported as 0.46

So the reported log10 of ID50 for CCCCCCCCCCCCCCCCOCC1OCC(COC(=O)N(Cc2cccc[n+]2CC)C(C)=O)O1 (stereo not drawn) , on Platelet-activating factor receptor (Rattus norvegicus) (UniProt P46002), turned out to be -1.62

---

What ID50 was measured for each of the following?
- target_desc: Platelet-activating factor receptor (Rattus norvegicus) (UniProt P46002)
- protocol_details: Activity expressed as the dose required to reduce the lowering of the arterial blood pressure caused by PAF by 50%
- Format: functional
- protocol_conditions: Artery
A number alone suffices; assume mg/kg.

The compound CCCCCCCCCCCCCCC1COC(COCCCCCCCC[n+]2ccsc2)C1 (stereo not given) showed ID50 equal to 2.3

Reported ID50 for CCCCCCCCCCCCCCCCOCC1COC(COC(=O)CCCCC[n+]2ccsc2)C1 (stereo not given) was 1.7

# ID50 (compound: CCCCCCCCCCCCCCCCCCOCC1COC(COC(=O)N(Cc2cccc[n+]2CC)C(C)=O)C1 (stereo not given) ) is 0.035

compound CCCCCCCCCCCCCCCCCCOCC1COC(COC(=O)N(Cc2cccc[n+]2CC)C(C)=O)O1 (stereo not given) , ID50 observed: 0.017

Lab book: ID50 of CCCCCCCCCCCCCCCC1OCC(COC(=O)CCCCC[n+]2ccsc2)O1 (stereo not given) noted as 0.86

The recorded ID50 for entry CCCCCCCCCCCCCCC1COC(COC(=O)N(Cc2cccc[n+]2CC)C(C)=O)C1 (stereo not given) equals 0.24

Entry CCCCCCCCCCCCCCCCCCOCC1COC(COC(=O)CCCCC[n+]2ccsc2)C1 (stereo not given) ; ID50 = 2.4

Record CCCCCCCCCCCCOCC1COC(COCCCCCCC[n+]2ccsc2)C1 (stereo not given) , field ID50: 3.7

# compound CCCCCCCCCCCCCCCCCCOCC1CC(COC(=O)CCCCC[n+]2ccsc2)CO1 (stereo not given) ; its ID50 = 1.1

The compound identified as CCCCCCCCCCCCCCCCCC1OCC(COC(=O)CCCCC[n+]2ccsc2)O1 (stereo not given) registered its ID50 at 0.88

Record CCCCCCCCCCCCCCCCCC1CCC(COC(=O)N(Cc2cccc[n+]2CC)C(C)=O)O1 (stereo not given) , field ID50: 0.15

Looking up CCCCCCCCCCCCCCCC1CCC(COC(=O)CCCCC[n+]2ccsc2)O1 (stereo not given) , I found its ID50 recorded as 1.2

Lab note: CCCCCCCCCCCCCCCCCC1OCC(COCCCCCC[n+]2ccsc2)O1 (stereo not given) gave ID50 of 1.3

ID50 measured on CCCCCCCCCCCCCCCCCCOCC1CC(COCCCCCCC[n+]2ccsc2)CO1 (stereo not given) = 2.1

The reported value for CCCCCCCCCCCCCCCCOCC1CCC(COC(=O)N(Cc2cccc[n+]2CC)C(C)=O)O1 (stereo not given) in terms of ID50 is 0.036
